The molecules listed here are annotated with their Ki.
target.entity: recombinant OfurPBP3 (Ostrinia furnacalis, UniProt E7CCA1)
Sequence (E7CCA1 entry or part of it): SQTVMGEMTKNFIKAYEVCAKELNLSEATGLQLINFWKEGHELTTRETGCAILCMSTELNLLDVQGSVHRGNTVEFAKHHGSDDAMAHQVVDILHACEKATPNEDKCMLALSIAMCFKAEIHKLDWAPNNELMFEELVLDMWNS
experimental.details: Competitive fluorescence binding assay with 1-NPN probe, OfurPBP3 wild type
protocol.conditions: OfurPBP3 wild type; pH 7.4; mean ± SE; dash = undetectable interaction

Worked cases, Ki given:
INSERT INTO results (molecule, target_entity, observable, value_reported) VALUES
  ('CC/C=C/CCCCCCCCCCOC(C)=O [E11-14:OAc, (E)-11-Tetradecenyl acetate]', 'recombinant OfurPBP3 (Ostrinia furnacalis, UniProt E7CCA1)', 'Ki', '1970 nM'),
  ('CC/C=C/CCCCCCCCCCO [E11-14:OH, (E)-11-Tetradecenol]', 'recombinant OfurPBP3 (Ostrinia furnacalis, UniProt E7CCA1)', 'Ki', '> 6000 nM'),
  ('CCCC/C=C\CCCCCCCCO [Z9-14:OH, (Z)-9-Tetradecenol]', 'recombinant OfurPBP3 (Ostrinia furnacalis, UniProt E7CCA1)', 'Ki', '> 6000 nM'),
  ('CC/C=C\CCCCCCCCCCOC(C)=O [Z11-14:OAc, (Z)-11-Tetradecenyl acetate]', 'recombinant OfurPBP3 (Ostrinia furnacalis, UniProt E7CCA1)', 'Ki', '2440 nM');

Turning to the following molecule.
Challenge: Note down Ki recorded for C/C=C\CCCCCCCCCCCOC(C)=O [Z12-14:OAc, (Z)-12-Tetradecenyl acetate]
Response given: 2860 nM
